tested on: Mus musculus; assay: Toxicity in ip dosed mouse assessed as optimum dose that providing maximum increase in life span administered qd for 1 to 5 days; type: organism-based; details: in vivo
RECORDED_ENDPOINT: log10(Activity) (log10 of the value in mg/kg)

SMILES | log10(Activity)
CCCN(C)/N=N/c1ccc2c(Nc3ccc(NS(C)(=O)=O)cc3)c3ccccc3nc2c1.CS(=O)(=O)O | 1.18
CCCCCCC(=O)N(c1ccc(Nc2c3ccccc3nc3cc([N+](=O)[O-])ccc23)cc1)S(C)(=O)=O | 0.95
CC(=O)Nc1ccc2c(Nc3ccc(N(C(C)=O)S(C)(=O)=O)cc3)c3ccccc3nc2c1.Cl | 1.45
CCCC(=O)N(c1ccc(Nc2c3ccccc3nc3cc([N+](=O)[O-])ccc23)cc1)S(C)(=O)=O | 1.70
CCN(CC)/N=N/c1ccc2c(Nc3ccc(NS(C)(=O)=O)cc3)c3ccccc3nc2c1.CS(=O)(=O)O | 1.40
COc1cc(NS(C)(=O)=O)ccc1Nc1c2ccccc2nc2cc(N=[N+]=[N-])ccc12.Cl | 0.90
Br.CCCCCCC(=O)N(c1ccc(Nc2c3ccccc3nc3cc(NC(C)=O)ccc23)cc1)S(C)(=O)=O | 1.15
CCC(=O)N(c1ccc(Nc2c3ccccc3nc3c(C)cccc23)c(OC)c1)S(C)(=O)=O | 1.40
COc1cc(NS(C)(=O)=O)ccc1Nc1c2ccccc2nc2cc(/N=N/N(C)C)ccc12.Cl | 1.00
Br.CCCCCCCCC(=O)N(c1ccc(Nc2c3ccccc3nc3cc(NC(C)=O)ccc23)cc1)S(C)(=O)=O | 1.65
CCCCC(=O)N(c1ccc(Nc2c3ccccc3nc3ccccc23)cc1)S(C)(=O)=O.Cl | 2.60
CCCCCCCCC(=O)N(c1ccc(Nc2c3ccccc3nc3ccccc23)cc1)S(C)(=O)=O.Cl | 2.60
Cc1cccc2c(Nc3ccc(NS(C)(=O)=O)cc3)c3ccc([N+](=O)[O-])cc3nc12 | 2.00
CS(=O)(=O)Nc1ccc(Nc2c3ccccc3nc3ccccc23)cc1 | 1.65
CCCOC(=O)CCC(=O)N(c1ccc(Nc2c3ccccc3nc3c(C)cccc23)c(OC)c1)S(C)(=O)=O | 1.88
CCCCCCCCCCCCCCCCCC(=O)N(c1ccc(Nc2c3ccccc3nc3cc(NC(C)=O)ccc23)cc1)S(C)(=O)=O | 2.65
CCCC(=O)N(c1ccc(Nc2c3ccc([N+](=O)[O-])cc3nc3c(C)cccc23)cc1)S(C)(=O)=O | 1.70
Br.CCCCCCCC(=O)N(c1ccc(Nc2c3ccccc3nc3cc(NC(C)=O)ccc23)cc1)S(C)(=O)=O | 1.34
COc1cc(N(C(C)=O)S(C)(=O)=O)ccc1Nc1c2ccccc2nc2ccccc12.Cl | 0.78
